B1: CPEB3 Ribozyme (parent)
chain: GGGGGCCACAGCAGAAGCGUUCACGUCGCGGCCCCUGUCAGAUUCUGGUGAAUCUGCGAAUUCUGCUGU

variants of: B1; assay: self-cleavage, relative activity (ratio to wild type); higher = more cleavage; co-transcriptional
property.label: self-cleavage

mutation.id	property.label	observed
A16C U38C	self-cleavage	0.137
A52C U67A	self-cleavage	0.963

For U46C U69A the variant record lists self-cleavage as 0.997

For C33U U44G the variant record lists self-cleavage as 0.945

For G2U C9A the variant record lists self-cleavage as 0.149

For A42G U44C the variant record lists self-cleavage as 0.562

For U49C G50U the variant record lists self-cleavage as 1.03

For A16G G30A the variant record lists self-cleavage as 0.612

For A15C G68C the variant record lists self-cleavage as 0.917
